Kindly supply the reported Ki values for the records listed here.
TARGET OF ASSAY: KPC-2 (Klebsiella pneumoniae, UniProt Q9F663)
Sequence (Q9F663 25-293, looked up, species assumed): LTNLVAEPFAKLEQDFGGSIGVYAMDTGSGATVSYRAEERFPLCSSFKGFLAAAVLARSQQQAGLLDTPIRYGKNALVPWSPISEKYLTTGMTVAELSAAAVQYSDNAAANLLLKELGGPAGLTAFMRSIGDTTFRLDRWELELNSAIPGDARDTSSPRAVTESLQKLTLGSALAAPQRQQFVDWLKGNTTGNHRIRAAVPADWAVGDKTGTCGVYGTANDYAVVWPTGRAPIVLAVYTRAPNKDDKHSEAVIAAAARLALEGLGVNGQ
ASSAY PROCEDURE: Ki, nitrocefin cleavage by purified enzyme, KPC-2
PROTOCOL CONDITIONS: nitrocefin reporter substrate; read-out: Ki (KPC-2, NCF)

Example compounds with recorded Ki:
CSCC(=O)N[C@H]1Cc2ccc(OCC(=O)O)c(C(=O)O)c2OB1O : > 0.01 µM
O=C(CSC(F)F)N[C@H]1Cc2ccc(F)c(C(=O)O)c2OB1O : > 0.01 µM

Exam item: Endpoint output: Ki of CSCC(=O)N[C@@H]1Cc2ccc(F)c(C(=O)O)c2OB1O . Value?
Marked response: > 0.01 µM
